- EXPERIMENT_SUMMARY: PK in normal beagle dogs, IV and oral gavage
- Type: in vivo
- CONDITION: male, plasma, Dog #1, IV, 0.97 mg/kg
REPORTED_ENDPOINT: Cmax

>>> test_result("NS(=O)(=O)c1cccc2c1C(=O)C=C(Nc1cccnc1)C2=O")
"5.59 µM"

---

- EXPERIMENT_SUMMARY: Plasma PK profile in mice
- Format: in vivo
- CONDITION: ICR, mouse, 5 mg/kg IP, read-out: F (bioavailability)
REPORTED_ENDPOINT: bioavailability (%)

>>> test_result("NS(=O)(=O)c1cccc2c1C(=O)C=C(Nc1cccnc1)C2=O")
69.5

---

- EXPERIMENT_SUMMARY: PK in normal beagle dogs, oral capsules of LY5 powder
- Format: in vivo
- CONDITION: female, plasma, Dog #2, 50mg oral capsule, fasted
REPORTED_ENDPOINT: Tmax (h)

>>> test_result("NS(=O)(=O)c1cccc2c1C(=O)C=C(Nc1cccnc1)C2=O [LY5]")
4

---

- EXPERIMENT_SUMMARY: Plasma PK profile in mice
- Format: in vivo
- CONDITION: ICR, mouse, 5 mg/kg IV
REPORTED_ENDPOINT: Cmax (µM)

>>> test_result("NS(=O)(=O)c1cccc2c1C(=O)C=C(Nc1cccnc1)C2=O")
1.66

Each recorded value in this set is attributed to paper PMC5531494.
